Can you tell me viability at 24 h, 1 µM for the items I'm about to list?
test: Cytotoxicity by CCK-8 in RD cells; format: cell-based; settings: human, RD cells, 1 μM polypeptide, 24 h, untreated = 100%; read-out: Cell viability (%)
No end group written: not given here.
Answers are plain numbers, in %.

Reported viability at 24 h, 1 µM for RRRRRRRRAISDLLAS [P1] : what is it? 103

***
Reported viability at 24 h, 1 µM for RRRRRRRREEVRQYCRDQ [P2] : what is it? 105
